Give Cyno T-cell Binding 0.2 uM (MFI) for every item shown.
assaySystem: T1, cynomolgus monkey CD8A on primary cynomolgus monkey CD8+ T cells (cynomolgus monkey, UniProt P01732 23-235 (human entry))
T1 construct: also called Cyno CD8alpha
T1 sequence (P01732 other isoform, or with tags, fused parts or gaps limits assumed): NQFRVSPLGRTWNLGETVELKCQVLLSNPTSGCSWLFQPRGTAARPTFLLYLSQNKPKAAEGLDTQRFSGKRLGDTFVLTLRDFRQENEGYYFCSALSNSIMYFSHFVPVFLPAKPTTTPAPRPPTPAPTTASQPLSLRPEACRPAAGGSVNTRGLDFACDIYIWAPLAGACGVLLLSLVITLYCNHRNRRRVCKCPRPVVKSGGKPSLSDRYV
method: flow cytometry, cyno CD8+ T cells, 0.2 uM FN3
One number for each entry, in MFI.

binder	numericResult
P282DR9P1359_A8 (designed binder, FN3 domain) LPAPKNLVVSRVTEDSARLSWTAPDAAFDSFRIAYPEWPVQGEAIVLTVPGSERSYDLTGLKPGTEYFVIIYGVKGGELSPPLSAIFTT	7770
P282FR9P1361_A5 (designed binder, FN3 domain) LPAPKNLVVSRVTEDSARLSWTAPDAAFDSFGILYYEPVDSGEAITLPVPGSERSYDLTGLKPGTEYWVVITGVKGGAPSTPLGAIFTT	8110
P282ER9P1360_F11 (designed binder, FN3 domain) LPAPKNLVVSRVTEDSARLSWIAPDAAFDSFSIAYVEAELVGEAIQLVVPGSERSYDLTGLKPGTEYWVVILGVKGGNPSNPLGASFTT	4410
P283AR9P1362_H11 (designed binder, FN3 domain) LPAPKNLVVSRVTEDSARLSWPKIQGQHFDSFLIQYQESEKVGEAIVLTVPGSERSYDLTGLKPGTEYTVSIYGVDVKYDIDSRPISSNPLSAIFTT	3660
P282DR9P1359_C11 (designed binder, FN3 domain) LPAPKNLVVSRVTEDSARLSWTAPDAAFDSFKIAYPEFPPPGEAIVLTVPGSERSYDLTGLKPGTEYYVIIIGVKGGTDSWPLSAIFTT	457

Look up Cyno T-cell Binding 0.2 uM (MFI) for the entries below, preserving their order.
1. P282BR9P1357_C10 (designed binder, FN3 domain) LPAPKNLVVSRVTEDSARLSWWSNDNRPIFDSFLIQYQESEKVGEAIVLTVPGSERSYDLTGLKPGTEYTVSIYGVDVKWEGNRPVASNPLSAIFTT
2. P282FR9P1361_H5 (designed binder, FN3 domain) LPAPKNLVVSRVTEDSARLSWTAPDAAFDSFDIWYAEYGYPGEAIVLTVPGSERSYDLTGLKPGTEYDVAISGVKGGPRSYPLSAIFTT
3. P283AR9P1362_G11 (designed binder, FN3 domain) LPAPKNLVVSRVTEDSARLSWRKEATSFDSFLIQYQESEKVGEAIVLTVPGSERSYDLTGLKPGTEYTVSIYGVDVKYDIDSRPISSNPLSAIFTT
4. P282DR9P1359_C5 (designed binder, FN3 domain) LPAPKNLVVSRVTEDSARLSWTAPDAAFDSFWITYPEWPDPGGEAIVLTVPGSERSYDLTGLKPGTEYFVVIYGVKGGEIYSPLSAIFTT

a:
1: 5110; 2: 637; 3: 6830; 4: 14200

Look up Cyno T-cell Binding 0.2 uM (MFI) for the entries below, preserving their order.
1. P282DR9P1359_F6 (designed binder, FN3 domain) LPAPKNLVVSRVTEDSARLSWTAPDAAFDSFDIAYPEWPTTGEAIVLTVPGSERSYDLTGLKPGTEYFVVIWGVKGGDHSAPLSAIFTT
2. P283AR9P1362_F2 (designed binder, FN3 domain) LPAPKNLVVSRVTEDSARLSWRKKDHPFDSFLIQYQESEKVGEAIVLTVPGSERSYDLTGLKPGTEYTVSIYGVDVKYDIDSRPISSNPLSAIFTT
3. P282DR9P1359_G4 (designed binder, FN3 domain) LPAPKNLVVSRVTEDSARLSWTAPDAAFDSFEIAYPEWPPPGEAIVLTVPGSERSYDLTGLKPGPEYFVVIQGVKGGDPSFPLSAIFTTGGNHHHHH
4. P282DR9P1359_E2 (designed binder, FN3 domain) LPAPKNLVVSRVTEDSARLSWTAPDAAFDSFNIFYPEIVTWGEAIVLTVPGSERSYDLTGLKPGTEYWVNIVGVKGGDNSWPLSAIFTT

a:
1. 10700
2. 5520
3. 6010
4. 10900
